- Tested on: AncSZ
- experimental.protocol: phosphorylation enrichment, bacterial display (enrichment ratio); higher = better substrate or ligand; peptides without Tyr show the background
parameter.measured: phosphorylation enrichment

| ordered.residues | assay.system | reading |
| --- | --- | --- |
| GISDEYHVIRR [GCDH_Y398_H403R] | AncSZ | 0.983 |
| SFLSYYTSHVQ [NEFL_Y443_P440L] | AncSZ | 1.01 |
| LKVDVYGRSHK [FUT3_Y222] | AncSZ | 1 |
| PSPTRYSLSPS [RANBP2_Y785] | AncSZ | 0.976 |

###

- Tested on: Fer (mouse)
- experimental.protocol: phosphorylation enrichment, bacterial display (enrichment ratio); higher = better substrate or ligand; peptides without Tyr show the background
Threshold check on phosphorylation enrichment: at or above 0.5 gives rule met, strictly below gives rule not met.

| ordered.residues | assay.system | answer.label |
| --- | --- | --- |
| LRVGFYESDVM [A2M_Y708] | Fer (mouse) | rule met |
| GHLYAYNWISI [BEST1_Y227_D228N] | Fer (mouse) | rule met |
| TGTQLYGRFGS [ITGA2B_Y384] | Fer (mouse) | rule not met |
| KPNMNYDKLSR [FLI1_Y332] | Fer (mouse) | rule not met |
| SPPILYSFYLN [FCRL6_Y239_D244N] | Fer (mouse) | rule met |
| FEAMEYLESKQ [BTK_Y511_C506Y_YF] | Fer (mouse) | rule met |
| QNTADYYDLYG [PTPN11_Y62_G60A] | Fer (mouse) | rule met |
| GSIQQYTYKQE [PRG4_Y1271_I1272T] | Fer (mouse) | rule not met |

###

Below, each of the sequences is paired with its reported phosphorylation enrichment value.
- Test system: AncSZ
- experimental.protocol: phosphorylation enrichment, bacterial display (enrichment ratio); higher = better substrate or ligand; peptides without Tyr show the background

| ordered.residues | phosphorylation enrichment |
| --- | --- |
| LEAVSYSSRFA [RNLS_Y190_YF] | 0.718 |
| GLGGGYGGASG [KRT8_Y54] | 0.429 |
| SEASFYKSLNL [NGEF_Y289_YF] | 0.98 |
| IENPQYFSDAC [NTRK1_Y496] | 1.13 |
| LRYDSYWSYCN [SLC20A2_Y433_S434W] | 2.25 |
| TKYVAYIESQG [KDM4B_Y34_N29T] | 0.924 |
| NPSYNYEIVNQ [DYNC1H1_Y3379_R3384Q] | 0.885 |
| LTDTVYSSSSA [OR4C12_Y71_I67T] | 1.12 |
| LHRHAYPEQQQ [DPPA2_Y127_R131Q] | 0.726 |
| GVIRHYVVCST [BTK_Y334] | 1.13 |
| AQINLYQDVML [ZNF806_Y33] | 1.25 |
| IDSTPYRQWFE [RPS8_Y109_YF] | 0.739 |
| SDVSSYLEGQA [GCG_Y110] | 0.867 |
| RRSKMYLKTRS [LPL_Y329_S325R] | 0.728 |

###

- assay.system: SHP2-C SH2;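 also: peptide library displayed on the E. coli surface as eCPX fusions, selected cells deep-sequenced, score is each peptide's frequency after selection divided by its frequency in the input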
- experimental.protocol: SH2 binding enrichment of the phosphorylated peptide, bacterial display (enrichment ratio); higher = better substrate or ligand; peptides without Tyr show the background
The following sequences are listed with their measured SH2 binding enrichment values.
parameter.measured: SH2 binding enrichment

| ordered.residues | reading |
| --- | --- |
| KWRGQYDVAIE [BTK_Y425_K430E] | 0.823 |
| LVPPRYVRSEI [PKP2_Y194_A195V] | 0.632 |
| KLQKKYGPISS [CYP17A1_Y60_Y64S] | 0.594 |
| DSLASYLDKVR [KRT10_Y160_R156S] | 0.772 |

###

- assay.system: FGFR1 (UniProt P11362)
- Sequence (P11362 whole entry, looked up): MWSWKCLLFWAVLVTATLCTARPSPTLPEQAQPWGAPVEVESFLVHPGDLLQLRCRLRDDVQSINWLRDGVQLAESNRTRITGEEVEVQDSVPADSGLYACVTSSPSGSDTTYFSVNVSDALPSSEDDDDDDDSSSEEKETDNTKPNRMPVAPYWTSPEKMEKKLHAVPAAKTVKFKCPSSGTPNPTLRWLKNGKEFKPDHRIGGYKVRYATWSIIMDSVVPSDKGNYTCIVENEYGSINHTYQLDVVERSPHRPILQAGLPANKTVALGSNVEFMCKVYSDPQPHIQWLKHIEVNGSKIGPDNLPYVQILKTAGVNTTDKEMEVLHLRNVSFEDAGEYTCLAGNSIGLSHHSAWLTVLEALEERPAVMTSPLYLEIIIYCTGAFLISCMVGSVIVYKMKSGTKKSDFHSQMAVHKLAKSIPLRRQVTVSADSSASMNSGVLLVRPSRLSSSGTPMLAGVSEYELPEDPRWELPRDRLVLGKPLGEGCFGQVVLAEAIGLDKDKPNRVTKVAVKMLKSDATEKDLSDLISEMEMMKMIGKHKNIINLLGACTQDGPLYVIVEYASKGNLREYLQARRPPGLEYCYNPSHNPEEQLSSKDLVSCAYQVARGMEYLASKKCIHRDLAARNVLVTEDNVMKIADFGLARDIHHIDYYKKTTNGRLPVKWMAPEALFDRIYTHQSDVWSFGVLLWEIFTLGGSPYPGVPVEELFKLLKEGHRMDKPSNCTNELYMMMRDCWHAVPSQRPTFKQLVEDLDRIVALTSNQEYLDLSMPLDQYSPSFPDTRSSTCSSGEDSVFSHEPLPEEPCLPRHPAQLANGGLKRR
- experimental.protocol: phosphorylation enrichment, bacterial display (enrichment ratio); higher = better substrate or ligand; peptides without Tyr show the background
Rule: Fulfilled for phosphorylation enrichment not less than 0.6, Not fulfilled for anything less.

| ordered.residues | answer.label |
| --- | --- |
| GIADDYDKKKP [EIF1_Y54_L59P] | Not fulfilled |
| TTKVSYRASQP [MKI67_Y1737] | Not fulfilled |
| SNNFIYKTLGV [FAM83B_Y639_YF] | Not fulfilled |
| KYWREYILSLE [GPC3_Y299] | Not fulfilled |
| SRWKLYPRMLR [HAO1_Y50] | Not fulfilled |
| IENPQYFSDAC [NTRK1_Y496] | Fulfilled |
| QRDSSYYWEIE [RAF1_Y340] | Fulfilled |
| TQNGVYSAANF [DDX5_Y535_YF] | Not fulfilled |
| RYVTRYIYNRE [HLA-DQB1_Y62] | Fulfilled |
| GVIRHYVVCST [BTK_Y334] | Not fulfilled |
| TYEYKYPEGSS [TGM4_Y440] | Not fulfilled |
| EPVSDYINANI [PTPN11_Y304] | Not fulfilled |
| NSRFTYKLEVK [USH2A_Y3747_YF] | Not fulfilled |
| MSRDVYSTDYY [NTRK2_Y702] | Fulfilled |
| DVCKNYTEAKD [ALB_Y343_A344T] | Not fulfilled |
| TQPSPYAVYLF [RPGRIP1_Y823_R827L] | Fulfilled |
| VFLGAYDRFLP [SLC22A5_Y486_YF] | Fulfilled |
| YKGKKYKPLDL [RPL35_Y78] | Not fulfilled |
| LVSCTYQLATG [FGFR2_Y608_R612T] | Not fulfilled |
| PLGVLYKVKVF [PTS_Y128_V124L_YF] | Not fulfilled |
| DAAEDYAEGVR [DHODH_Y194] | Not fulfilled |
| YRKNIYNVKST [SYNE2_Y575] | Not fulfilled |
| QEGPEYWDLET [HLA-A_Y83_Q86L] | Fulfilled |
| YTFTSYYMHWV [IGHV1-46_Y51] | Fulfilled |
| AKKIKYFEGVS [PRKDC_Y682] | Not fulfilled |
| IRYPPYTDWNQ [ALDH3B2_Y365_H361R] | Fulfilled |
| NVTGHYIPPFH [PPA2_Y59_S61P] | Not fulfilled |
| HLSPEYKQNEI [GJB1_Y243_R238H] | Fulfilled |
| LARDMCDKEFF [MET_Y1230_Y1230C_YF] | Not fulfilled |
| RPSELYYSKIS [SMG1_Y2253_G2258S] | Fulfilled |
| RAFSWYQHQRA [NDST1_Y714_YF] | Fulfilled |
| NREGVYTDFAP [TGFBI_Y537_V539D] | Fulfilled |
| QKFMAYPSQGG [HLCS_Y236_L237P] | Not fulfilled |
| WNEVGYDDIGG [VCP_Y203_L198W] | Not fulfilled |
| DPHQQYFIAMD [TBX15_Y159_YF] | Fulfilled |
| FSGDFYRIQGR [DDR2_Y741_YF] | Not fulfilled |
| QSSALYEDRFL [ASS1_Y83_YF] | Fulfilled |
| LSIQTYSALNF [DES_Y423_P419S] | Fulfilled |
| NTVDYYDLYGG [PTPN11_Y63_G60V] | Fulfilled |
| ELETLYKKAVK [CC2D2A_Y381] | Not fulfilled |
| GDYYRSLAEVA [YWHAG_Y133_Y133S] | Fulfilled |
| YRQNVYIPGSN [PCDHGA1_Y895] | Not fulfilled |
| TTSQPYRRLCS [USH2A_Y534_C536R] | Not fulfilled |
| SLNAVYPKAGS [OAS3_Y376_R378K] | Not fulfilled |
| GRSTCYWPRPR [GAGE12J_Y10_Y9C] | Not fulfilled |
| ILTLKYLIEHG [ACTG1_Y69_P70L] | Not fulfilled |
| EERKTYVNTML [TEK_Y1102_T1106M] | Not fulfilled |
| RGYRVCYTPDS [PTPRF_Y450_Y450C] | Fulfilled |
| NNHGNYIVHLG [ETFDH_Y172_R175H] | Fulfilled |
| KVALLYKPFFF [POLE_Y100_P99L_YF] | Not fulfilled |
| DPLLTYQFPPK [LMNA_Y481_R482Q] | Fulfilled |

###

- assay.system: Fes (UniProt P07332)
- Sequence (P07332 whole entry, looked up): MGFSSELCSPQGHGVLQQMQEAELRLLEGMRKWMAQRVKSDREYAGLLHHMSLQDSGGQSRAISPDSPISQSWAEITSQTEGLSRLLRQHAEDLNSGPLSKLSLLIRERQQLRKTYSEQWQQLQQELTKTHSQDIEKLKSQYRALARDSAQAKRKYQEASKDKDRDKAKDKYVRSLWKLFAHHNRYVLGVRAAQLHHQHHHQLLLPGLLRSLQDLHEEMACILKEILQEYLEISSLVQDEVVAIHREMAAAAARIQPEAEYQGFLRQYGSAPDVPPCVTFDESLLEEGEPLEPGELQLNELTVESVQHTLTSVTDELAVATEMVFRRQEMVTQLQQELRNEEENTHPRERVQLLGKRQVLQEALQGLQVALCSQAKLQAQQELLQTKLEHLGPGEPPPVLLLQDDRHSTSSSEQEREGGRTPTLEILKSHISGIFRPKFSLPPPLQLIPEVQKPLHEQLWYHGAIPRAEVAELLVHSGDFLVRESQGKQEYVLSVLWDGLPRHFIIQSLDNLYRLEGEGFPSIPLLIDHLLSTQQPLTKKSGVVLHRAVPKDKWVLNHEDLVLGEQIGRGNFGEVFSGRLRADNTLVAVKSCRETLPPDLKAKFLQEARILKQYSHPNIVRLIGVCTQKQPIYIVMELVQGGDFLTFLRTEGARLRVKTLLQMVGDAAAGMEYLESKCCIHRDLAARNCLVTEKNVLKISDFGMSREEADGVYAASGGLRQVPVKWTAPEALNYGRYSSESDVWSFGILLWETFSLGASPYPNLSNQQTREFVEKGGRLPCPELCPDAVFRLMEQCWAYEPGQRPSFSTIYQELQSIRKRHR
- experimental.protocol: phosphorylation enrichment, bacterial display (enrichment ratio); higher = better substrate or ligand; peptides without Tyr show the background
Item-by-item account of phosphorylation enrichment

| ordered.residues | assay.system | phosphorylation enrichment |
| --- | --- | --- |
| PSQRCYVYYYS [PTEN_Y174_R173C] | Fes (UniProt P07332) | 2.28 |
| QEGPEYWDLET [HLA-A_Y83_Q86L] | Fes (UniProt P07332) | 2.29 |
| VGIMLYGVDSR [PKD1_Y3143] | Fes (UniProt P07332) | 1.19 |
| SRWKLYPRMLR [HAO1_Y50] | Fes (UniProt P07332) | 0.619 |
| QGQHWYSSSDT [CASP10_Y9_K14T] | Fes (UniProt P07332) | 1.39 |
| QLDQHYLLVPE [DDX49_Y223_R222H] | Fes (UniProt P07332) | 1.1 |
| SVTCTYSPALK [TP53_Y126_N131K] | Fes (UniProt P07332) | 1.02 |
| DLVSEYQQYQD [TUBB3_Y422] | Fes (UniProt P07332) | 1.37 |
| TKDTFYKQRMF [GBA_Y451_P454R] | Fes (UniProt P07332) | 0.579 |
| LSIQTYSALNF [DES_Y423_P419S] | Fes (UniProt P07332) | 2.14 |
| KKFFSYAWPFF [BRDT_Y291_H288Y_YF] | Fes (UniProt P07332) | 0.991 |
| DLDATYRPMFS [JUP_Y701_M697L_YF] | Fes (UniProt P07332) | 0.85 |
| GGSTYYIDTNA [ACTL6A_Y69_P66S] | Fes (UniProt P07332) | 0.998 |
| GVPLGYPIKAS [ELN_Y206_P211S] | Fes (UniProt P07332) | 0.576 |
| MKTISYETLIA [DOCK10_Y1350] | Fes (UniProt P07332) | 0.926 |
| ERLWVYGMSSS [F8_Y1728_D1727V] | Fes (UniProt P07332) | 1.61 |
